Biological target: T1, In house human CD8A-Fc (human, UniProt P01732 22-182, limits assumed)
T1 construct: Captured on goat anti-human Fc on a ProteOn GLC chip; also called hCD8A-Fc; recombinant human CD8 alpha; not shown: linker with flag (and polyhistidine) tag and Fc of human IgG1
T1 sequence (P01732 22-182 limits assumed): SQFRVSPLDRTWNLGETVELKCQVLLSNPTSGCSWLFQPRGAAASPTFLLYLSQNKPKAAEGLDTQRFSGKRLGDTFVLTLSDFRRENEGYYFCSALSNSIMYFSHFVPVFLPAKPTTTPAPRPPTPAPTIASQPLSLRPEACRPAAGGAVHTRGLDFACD
Experiment: SPR (ProteOn), captured hCD8A-Fc
recorded-endpoint: log10 of koff (log10 of the value in s⁻¹)
Use the decimal logarithm of koff (s⁻¹).

Query :: Give a short answer stating reported log10 of koff for P282DR9P1359_A12 (designed binder, FN3 domain) LPAPKNLVVSRVTEDSARLSWTAPEAAFDSFQIAYPEWPPPREAIVLTVPGSERSYDLTGLKPGTEYFVVIQGVKGGEISWPLSAIFTT .
Result :: -4.09

Query :: Give a short answer stating reported log10 of koff for P282BR9P1357_B2 (designed binder, FN3 domain) LPAPKNLVVSRVTEDSARLSWNPSEDPQRFDSFLIQYQESEKVGEAIVLTVPGSERSYDLTGLKPGTEYTVSIYGVDVKWEGNRPVASNPLSAIFTT .
Result :: -4.00

Query :: Give a short answer stating reported log10 of koff for P282ER9P1360_G10 (designed binder, FN3 domain) LPAPKNLVVSRVTEDSARLSWTAPDAAFDSFAIWYVEQHPFGEAIPLFVPGSERSYDLTGLKPGTEYTVGIRGVKGGNFSTPLIAHFTT .
Result :: -2.68

Query :: Give a short answer stating reported log10 of koff for P282FR9P1361_C7 (designed binder, FN3 domain) LPAPKNLVVSRVTEDSARLSWTAPDAAFDSFGIWYHEYGGDGEAIVLTVPGSERSYDLTGLKPGTEYDVAIWGVKGGDVSYPLSAIFTT .
Result :: -2.65

Query :: Give a short answer stating reported log10 of koff for P282CR9P1358_D10 (designed binder, FN3 domain) LPAPKNLVVSRVTEDSARLSWTAPDAAFDSFLISYPEYPPPGEAIVLTVPGSERSYDLTGLKPGTEYFVIIFGVKGGDTSWPLSAIFTT .
Result :: -3.51

Query :: Give a short answer stating reported log10 of koff for P282DR9P1359_C10 (designed binder, FN3 domain) LPAPKNLVVSRVTEDSARLSWTAPDAAFDSFAIVYPEWPTDGEAIVLTVPGSERSYDLTGLKPGTEYAVFIWGVKGGNQSWPLSAIFTT .
Result :: -3.00

Query :: Give a short answer stating reported log10 of koff for P283AR9P1362_B2 (designed binder, FN3 domain) LPAPKNLVVSRVTEDSARLSWAKHPNSFDSFLIQYQESEKVGEAIVLTVPGSERSYDLTGLKPGTEYTVSIYGVDVVVNELNNPLFSNPLSAIFTT .
Result :: -3.80

Query :: Give a short answer stating reported log10 of koff for P282DR9P1359_G7 (designed binder, FN3 domain) LPAPKNLVVSRVTEDSARLSWTAPDAAFDSFAITYIEKEHIEDGEAIVLTVPGSERSYDLTGLKPGTEYWVPIWGVKGGANSWPLSAIFTT .
Result :: -3.94

Query :: Give a short answer stating reported log10 of koff for P282ER9P1360_H10 (designed binder, FN3 domain) LPAPKNLVVSRVTEDSARLSWTAPDAAFDSFEIYYPEWPFAGEAIGLPVPGSERSYDLTGLKPGTEYFVVIYGVKGGELSEPLTAQFTT .
Result :: -2.98
